tested target: angiotensin II receptor type 1 (AT1) (Homo sapiens)
Sequence (P30556 1-359): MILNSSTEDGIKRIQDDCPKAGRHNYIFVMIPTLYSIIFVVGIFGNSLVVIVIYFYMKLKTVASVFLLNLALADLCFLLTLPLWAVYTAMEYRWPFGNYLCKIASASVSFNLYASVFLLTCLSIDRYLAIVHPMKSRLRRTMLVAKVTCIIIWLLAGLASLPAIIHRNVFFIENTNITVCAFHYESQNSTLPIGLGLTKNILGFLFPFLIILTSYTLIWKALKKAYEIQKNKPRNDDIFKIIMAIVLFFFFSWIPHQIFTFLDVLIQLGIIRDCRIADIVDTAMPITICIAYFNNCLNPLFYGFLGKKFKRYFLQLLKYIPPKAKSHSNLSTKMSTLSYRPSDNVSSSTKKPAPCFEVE
measurement notes: AT1 antagonist activity: inhibition of response to 3 nM angiotensin-II, intracellular Ca2+ by fluorimetry
reported conditions: HEK-293 cells expressing hAT1
readout type: IC50 (nM)
Numbers only; they are read as nM.

For the molecule `CCCc1nc2c(C)cc(-c3nc4ccccc4n3C)cc2n1Cc1ccc(-c2ccccc2-n2nn[nH]c2=O)cc1` , report IC50.
1.7

src = patent US9439888B2
